KD fold improvement values by entry
- System Tested: T1, human tissue factor pathway inhibitor (TFPI) (human, UniProt P10646 29-304, limits assumed)
- T1 construct: bought; also called hTFPI; human TFPI
- T1 sequence (looked up): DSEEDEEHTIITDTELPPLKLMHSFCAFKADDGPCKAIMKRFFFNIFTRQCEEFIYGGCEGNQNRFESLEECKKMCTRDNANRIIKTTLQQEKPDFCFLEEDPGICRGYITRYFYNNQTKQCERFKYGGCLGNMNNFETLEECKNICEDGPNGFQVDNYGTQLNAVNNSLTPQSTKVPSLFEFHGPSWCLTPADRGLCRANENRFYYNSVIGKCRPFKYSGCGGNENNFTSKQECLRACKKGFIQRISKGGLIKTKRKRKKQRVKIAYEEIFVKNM
- Procedure Text: SPR, TFPI immobilized
Please state the value followed by its unit.

- 2A8-200 (HC S35D+S55R+K99L/LC Y48F+N51V+D91W) (Fab, V domains shown) VH: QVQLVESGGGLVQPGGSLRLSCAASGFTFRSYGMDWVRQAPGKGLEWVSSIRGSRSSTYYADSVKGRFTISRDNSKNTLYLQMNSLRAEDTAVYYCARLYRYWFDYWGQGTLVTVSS VL: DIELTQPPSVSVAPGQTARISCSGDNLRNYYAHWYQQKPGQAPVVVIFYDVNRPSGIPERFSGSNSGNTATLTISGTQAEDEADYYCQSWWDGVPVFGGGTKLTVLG: 53.7 fold
- 2A8 wild-type Fab (Fab, V domains shown, Fab with c-myc (or HA, or none) and 6xHis tag at the C-terminus of the heavy chain; also called 2A8wt; 2A8 wt) VH: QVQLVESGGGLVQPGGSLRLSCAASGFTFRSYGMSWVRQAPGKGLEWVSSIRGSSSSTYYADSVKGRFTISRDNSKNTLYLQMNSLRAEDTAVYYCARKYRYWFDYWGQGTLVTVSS VL: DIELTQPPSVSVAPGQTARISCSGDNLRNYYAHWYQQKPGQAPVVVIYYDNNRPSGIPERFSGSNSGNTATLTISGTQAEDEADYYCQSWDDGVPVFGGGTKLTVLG: 1 fold
- 2A8-g216 (HC S31V+I51D+S55R+K99V/LC D1S+I2Y+A13S+S21T+R28P+N29K+Y48F+N51S+E80M+D91L+D92S+V94T+V96W) (Fab, V domains shown) VH: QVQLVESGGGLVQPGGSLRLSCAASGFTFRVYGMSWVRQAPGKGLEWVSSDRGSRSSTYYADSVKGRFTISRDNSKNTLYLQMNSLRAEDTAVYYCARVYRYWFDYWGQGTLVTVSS VL: SYELTQPPSVSVSPGQTARITCSGDNLPKYYAHWYQQKPGQAPVVVIFYDSNRPSGIPERFSGSNSGNTATLTISGTQAMDEADYYCQSWLSGTPWFGGGTKLTVLG: 50.7 fold

Shifting focus to the binder that follows.
Exercise: // query KD fold improvement value for entry 2A8-216 (HC S31V+I51D+S55R+K99V/LC Y48F+D91L+V96W) (Fab, V domains shown) VH: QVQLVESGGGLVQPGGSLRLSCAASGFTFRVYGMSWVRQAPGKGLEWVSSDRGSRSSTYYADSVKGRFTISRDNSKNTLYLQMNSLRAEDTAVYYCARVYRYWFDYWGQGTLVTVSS VL: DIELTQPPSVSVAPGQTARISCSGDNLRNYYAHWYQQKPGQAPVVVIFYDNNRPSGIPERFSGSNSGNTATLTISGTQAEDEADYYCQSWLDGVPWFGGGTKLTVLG
Key: 39.6 fold

Data provenance is patent USRE47150.
